Biological target: CYP450 (Homo sapiens, UniProt P04798+P05177+P05181+P08684+P10632+P10635+P11509+P11712+P13584+P20813+P20815+P20853+P24462+P24903+P33260+P33261+P51589+P78329+P98187+Q02928+Q08477+Q16678+Q16696+Q5TCH4+Q6VVX0+Q7Z449+Q8TAV3+Q96SQ9+Q9HB55)
Assay: Inhibition of CYP450 (unknown origin)
Format: ADME, protein assay
recorded endpoint: IC50

{"compound": "CC1(C)c2nc(-c3ccc(F)cc3)c(Nc3ccc(F)cc3)n2CCN1C(=O)CN [GANAPLACIDE]", "recorded endpoint": "IC50", "endpoint result": "> 6 µM"}
{"compound": "FC1CCN(CCOc2ccc(C3CCC4(CC3)OOC3(OO4)C4CC5CC(C4)CC3C5)cc2)CC1 (stereo not drawn)", "recorded endpoint": "IC50", "endpoint result": "> 20 µM"}
{"compound": "Cc1cc(Nc2ccc(S(F)(F)(F)(F)F)cc2)n2nc(C(C)(F)F)nc2n1", "recorded endpoint": "IC50", "endpoint result": "> 10 µg/mL"}

====

Assay: Elimination half life in mouse blood at 16 mg/kg, po measured upto 28 days by LC-MS analysis
Assay type: ADME, organism-based
Conditions: time < 28 day, read-out: LambdaZ (converted)
recorded endpoint: half-life (h)

{"mol": "CN(C(=S)NN=C(c1ccccn1)c1ccccn1)c1ccccc1", "endpoint result": 48.7}

====

System: Plasmodium falciparum
Experiment: Antimalarial activity against chloroquine resistant Plasmodium falciparum W2 incubated for 48 hrs by SYBR green I fluorescence based assay
Assay type: functional, organism-based
Details: W2, 48 h
pIC50: −log10 of the molar value.

{"mol": "C[C@H]1[C@H](N2CCNCC2)O[C@@H]2O[C@]3(C)CC[C@H]4[C@H](C)CC[C@@H]1[C@@]24OO3", "pIC50": 8.85}
{"mol": "C[C@H]1[C@H](Nc2ccc(F)cc2)O[C@@H]2O[C@]3(C)CC[C@H]4[C@H](C)CC[C@@H]1[C@@]24OO3", "pIC50": 8.52}

====

# pKa values compiled below
Test: Dissociation constant, pKa of compound
Type: physicochemical

{"compound": "c1cc([C@H]2CC[C@]3(CC2)OO[C@]2(O3)C3CC4CC(C3)CC2C4)ccc1OCCN1CCOCC1 [ARTEFENOMEL]", "pKa": 7}
{"compound": "CC(=O)N1CCN(c2ccc(CN(C(=O)/C=C/c3ccc(C(C)(C)C)cc3)[C@@H](Cc3ccccc3)C(=O)N3CCN(Cc4ccc(C#N)cc4)CC3)cc2)CC1", "pKa": 6.8}
{"compound": "CCc1nc(N)nc(N)c1OCCCOc1ccccc1CCC(=O)O", "pKa": 4.5}
{"compound": "Cc1nc(Nc2ncc(N3CCN(C)[C@H](C)C3)c(Nc3cc(C)n(C)n3)n2)cc(C2CC2)c1F [SUTIDIAZINE]", "pKa": 8.4}
